Test: Cell Viability - LYMP2-022 (AID 987);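 note: cells exposed to compound for 24 hr; nearly all actives have a fitted effect of over 55% in size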
Conditions: LYMP2-022 lymphoblastoid cell viability; series mostly up to 92.2 µM
Records with an inconclusive call do not appear. Calls of active or inactive are those of the source. Calls come from the whole dose curve; as a rule, active = well fitted cell-killing curve with a large enough effect; inconclusive = small, poorly fitted or top-dose-only effect; inactive = flat fitted curve, though single readings scatter.
Form entry, call: pick from true = active, false = inactive

>  <CHEMICAL_STRUCTURE>
CNc1ccc(O)cc1

>  <LABEL>
true

$$$$
>  <CHEMICAL_STRUCTURE>
Cc1cccc(O)c1C

>  <LABEL>
false

$$$$
>  <CHEMICAL_STRUCTURE>
CCCCCCCC[N+](CCCCCCCC)(CCCCCCCC)CCCCCCCC

>  <LABEL>
true

$$$$
>  <CHEMICAL_STRUCTURE>
Cc1cc(Nc2ccc(O)cc2)ccc1N

>  <LABEL>
true

$$$$

*Q* Hey, what did the test say about O=C(OCC(COC(=O)c1ccccc1)(COC(=O)c1ccccc1)COC(=O)c1ccccc1)c1ccccc1 ?
*A* false

*Q* Query CN(C)c1ccc(C2(c3ccc(N(C)C)cc3)OC(=O)c3cc(N(C)C)ccc32)cc1 next
*A* false

*Q* Query C=C(C)c1ccccc1 next
*A* false

###

Test system: CP269
Test: qHTS profiling for inhibitors of Plasmodium falciparum proliferation (AID 504749); note: nearly all actives have a fitted effect of over 60% in size
Details: P. falciparum in erythrocytes, SYBR Green DNA, 72 h; series mostly up to 28.7 µM
Records with an inconclusive call do not appear. Calls of active or inactive are those of the source. The call rests on the fitted dose curve; in most records, active means well fitted inhibition curve with a large enough effect; inconclusive means small, poorly fitted or top-dose-only effect; inactive means flat fitted curve, though single readings scatter.
Form entry, call: pick from active, inactive

>  <MOLECULE>
Cc1ccc(S(=O)(=O)NC(=O)NC(C)Cc2ccccc2)cc1 (centres undefined)

>  <SUBJECT_OF_TEST>
CP269

>  <LABEL>
inactive

$$$$
>  <MOLECULE>
OC[C@@H]1O[C@](CO)(O[C@H]2O[C@H](CO)[C@@H](O)[C@H](O)[C@H]2O)[C@H](O)[C@H]1O

>  <SUBJECT_OF_TEST>
CP269

>  <LABEL>
inactive

$$$$
>  <MOLECULE>
C=C[C@@]1(C)C[C@H](OC(=O)CSC(C)(C)CNC(=O)[C@@H](N)C(C)C)[C@@]2(C)C(C)CC[C@@]3(CCC(=O)[C@@H]32)[C@H](C)[C@H]1O (some centres undefined)

>  <SUBJECT_OF_TEST>
CP269

>  <LABEL>
active

$$$$
>  <MOLECULE>
CCOc1ccccc1O[C@@H](c1ccccc1)[C@@H]1CNCCO1

>  <SUBJECT_OF_TEST>
CP269

>  <LABEL>
inactive

$$$$
>  <MOLECULE>
CCN(CC)C(=O)Nc1ccc(OC[C@H](O)CNC(C)(C)C)c(C(C)=O)c1

>  <SUBJECT_OF_TEST>
CP269

>  <LABEL>
inactive

$$$$
>  <MOLECULE>
C/C(=C(/CCOC(=O)C(C)C)SS/C(CCOC(=O)C(C)C)=C(\C)N(C=O)Cc1cnc(C)nc1N)N(C=O)Cc1cnc(C)nc1N

>  <SUBJECT_OF_TEST>
CP269

>  <LABEL>
inactive

$$$$
>  <MOLECULE>
CC12C=CC(=O)C=C1[C@@H](F)CC1C2C(O)CC2(C)C1CC[C@]2(O)C(=O)CO (some centres undefined)

>  <SUBJECT_OF_TEST>
CP269

>  <LABEL>
inactive

$$$$
>  <MOLECULE>
CCCC(=O)O[C@]1(C(=O)COC(C)=O)CC[C@H]2C3C[C@H](F)C4=CC(=O)C=CC4(C)[C@@]3(F)[C@@H](O)CC21C (some centres undefined)

>  <SUBJECT_OF_TEST>
CP269

>  <LABEL>
inactive

$$$$

*Q* Hey, what did the test say about CCCCCCCCCCCC(=O)OCC(O)C1OCC(O)C1O (centres undefined) ?
*A* inactive

*Q* Query C[C@@H]1CC2[C@@H]3C[C@H](F)C4=CC(=O)C(Cl)=C[C@]4(C)[C@@]3(F)[C@H](O)C[C@]2(C)[C@@]1(O)C(=O)CO (some centres undefined) next
*A* inactive

###

Recorded activity, negative = inhibition values for a group of compounds are listed next.
Assay: Stat Signaling Pathway (AID 446);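 note: ME-180 cervical cancer cells given 40 pM IL-6 alongside compound; SIE-controlled beta-lactamase reporter measured as 460/530 nm FRET emission ratio; % is set by controls: 0 for no effect and ±100 for the full control effect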
Settings: ME-180 SIE beta-lactamase reporter, IL-6 stimulated, 5 h; at 17.2 µM (top of the series) unless noted
Records with an inconclusive call do not appear. The source made the active and inactive calls. Calls follow the shape of the dose curve; as a rule, active = well fitted curve in either direction with a large enough effect (not every such curve was filed as active); inconclusive = small, poorly fitted or top-dose-only effect, or another doubt; inactive = flat fitted curve, though single readings scatter.

Here is how some compounds turned out for activity, negative = inhibition.
>  <COMPOUND>
c1ccc2c(c1)CCC[C@H]2C1=NCCN1

>  <activity, negative = inhibition>
7.24% [at 38 µM] (inactive)

$$$$
>  <COMPOUND>
O=C1C(=O)N(Cc2cccnc2)C(c2ccccn2)/C1=C(/O)c1ccccc1 (centres undefined)

>  <activity, negative = inhibition>
4.87% (inactive)

$$$$
>  <COMPOUND>
COc1cccc(C2/C(=C(\O)c3ccc(OC)c(OC)c3)C(=O)C(=O)N2c2cc(C)on2)c1 (centres undefined)

>  <activity, negative = inhibition>
-8.6% (inactive)

$$$$

*Q* Quick one: activity, negative = inhibition of O=C(O)C1CSC(CCc2ccccc2)N1 (centres undefined) ?
*A* 27% (inactive)

*Q* Query CCc1cc(=O)oc2cc(C)c(CN3CCCC3)c(O)c12 next
*A* -10.7% (inactive)

*Q* Query Cn1c(=O)c2c3c(sc2n2c(SCC(=O)c4ccc(Cl)cc4)nnc12)COC(C)(C)C3 next
*A* -0.164% (inactive)

*Q* Query Cn1c(=O)[nH]c(=O)c2c1nc(Br)n2CCSc1nnnn1-c1ccccc1 next
*A* -8.23% (inactive)

*Q* Query CC1C[C@@]2(NC(=O)NC2=O)C(C)CN1C (some centres undefined) next
*A* 5.03% (inactive)

*Q* Query CCCCOC(=O)CSC1=C(C#N)C(c2ccccc2OC)C(C#N)C(=O)N1 (centres undefined) next
*A* -14% (inactive)

###

Experiment: Stat Signaling Pathway (AID 446);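 note: ME-180 cervical cancer cells given 40 pM IL-6 alongside compound; SIE-controlled beta-lactamase reporter measured as 460/530 nm FRET emission ratio; % is set by controls: 0 for no effect and ±100 for the full control effect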
Conditions: ME-180 SIE beta-lactamase reporter, IL-6 stimulated, 5 h; at 17.2 µM (top of the series) unless noted
Records with an inconclusive call do not appear.
Recorded activity, negative = inhibition values for a group of compounds are listed next.
Number only, in %; omit the unit.

>  <COMPOUND>
COc1cc(C2NC(=O)NC(C)=C2C(=O)Nc2cccc(C)c2C)cc(OC)c1OC (stereo not drawn)

>  <UNIT_OF_MEASURE>
%

>  <activity, negative = inhibition>
-2.31

$$$$
>  <COMPOUND>
COc1ccccc1Nc1ncnc2c1cnn2-c1cccc(C)c1

>  <UNIT_OF_MEASURE>
%

>  <activity, negative = inhibition>
-6.58

$$$$

Next, consider the following compound.
*Q* Quick one: activity, negative = inhibition of Cn1c(=O)c2c(nc(NCc3ccco3)n2Cc2ccc(Cl)cc2Cl)n(C)c1=O ?
*A* -17.6

###

Test: MultiTox-Fluor Cytotoxicity Assay - LYMP1-003 - Live Cells (AID 962);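 note: cells exposed to compound for 16 hours at 37 °C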; note: potency is the fitted concentration of half-maximal effect
Conditions: LYMP1-003 lymphoblastoid cells, MultiTox-Fluor live-cell protease fluorescence; series mostly up to 92.2 µM
The source made the active and inactive calls. Calls follow the shape of the dose curve; as a rule, active = well fitted cell-killing curve with a large enough effect; inconclusive = small, poorly fitted or top-dose-only effect; inactive = flat fitted curve, though single readings scatter.
ENDPOINT: Potency

>  <CHEMICAL_STRUCTURE>
O=C1OC2(c3cc(Br)c(O)c(Br)c3Oc3c2cc(Br)c(O)c3Br)c2c(Cl)c(Cl)c(Cl)c(Cl)c21

>  <Potency>
inactive

$$$$
>  <CHEMICAL_STRUCTURE>
ClC1=C(Cl)C(Cl)(Cl)C(Cl)=C1Cl

>  <Potency>
inactive

$$$$
>  <CHEMICAL_STRUCTURE>
CNc1ccc(O)cc1

>  <Potency>
31.6 µM (active)

$$$$
>  <CHEMICAL_STRUCTURE>
C/C=C1\C(=O)C[C@H]2[C@@H]3CCC4=CC(=O)CC[C@]4(C)[C@H]3CC[C@]12C

>  <Potency>
inactive

$$$$

Next, consider the following molecule.
*Q* Quick one: Potency of C=C(C)c1ccccc1 ?
*A* inactive

###

Assay: qHTS Assay for Identification of Small Molecule Agonists for Hypoxia Response Element Signaling Pathway (AID 914); note: % of control where 0% means no effect
Settings: ME-180 (cervical carcinoma) HRE-bla reporter, beta-lactamase ratio, CoCl2, 17 h; active compounds read high
Records with an inconclusive call do not appear.
ENDPOINT: activation (%)
Number only, in %; omit the unit.

Here is how some compounds turned out for activation.
>  <COMPOUND>
COc1cccc(Cn2c(Oc3ccccc3)nc3c2c(=O)n(C)c(=O)n3C)c1

>  <UNIT_OF_MEASURE>
%

>  <QUANTITATIVE_READOUT>
-17.4

$$$$
>  <COMPOUND>
O=C1CSC(=Nc2ccc(O)cc2)N1c1ccc(O)cc1

>  <UNIT_OF_MEASURE>
%

>  <QUANTITATIVE_READOUT>
-9.31

$$$$
>  <COMPOUND>
N#Cc1nc(COc2ccccc2)oc1N1CCCC1

>  <UNIT_OF_MEASURE>
%

>  <QUANTITATIVE_READOUT>
-0.614

$$$$
>  <COMPOUND>
O=C1c2ccccc2C(=O)N1CC1c2ccccc2CCN1C(=O)N1CCOCC1 (stereo unspecified)

>  <UNIT_OF_MEASURE>
%

>  <QUANTITATIVE_READOUT>
4.7

$$$$
>  <COMPOUND>
Cc1ccc(-c2n[nH]c(=O)c3ccccc23)cc1S(=O)(=O)NCCN1CCOCC1

>  <UNIT_OF_MEASURE>
%

>  <QUANTITATIVE_READOUT>
-17.3

$$$$

*Q* Quick one: activation of COCCNc1nc2c(c(=O)n(Cc3ccc(OC)cc3)c(=O)n2C)n1C ?
*A* -9.75

*Q* Query CC(CN1CCN(C)CC1)OC(=O)c1ccc(Cl)cc1Cl (stereo unspecified) next
*A* -4.39

*Q* Query CSc1ccccc1NC(=O)c1c(Br)cnn1C next
*A* 27.6

*Q* Query COc1cc(NC2=CC(=O)CC(C)(C)C2)cc(OC)c1OC next
*A* -12.9

*Q* Query CCN(CC)CCNc1nc2c(c(=O)[nH]c(=O)n2C)n1CCOc1ccccc1 next
*A* 0.547

*Q* Query COc1cc(-c2cc(C(F)(F)F)n3ncc(C(=O)O)c3n2)cc(OC)c1OC next
*A* 13.9
